So I've got a bunch of binders here, and I need their t½ values.
# test-target: T1, human IL-25 expressed with a C-terminal myc-myc-hexahistidine tag (human)
# T1 construct: also called human IL-25-MMH; hIL-25-MMH
# T1 chain: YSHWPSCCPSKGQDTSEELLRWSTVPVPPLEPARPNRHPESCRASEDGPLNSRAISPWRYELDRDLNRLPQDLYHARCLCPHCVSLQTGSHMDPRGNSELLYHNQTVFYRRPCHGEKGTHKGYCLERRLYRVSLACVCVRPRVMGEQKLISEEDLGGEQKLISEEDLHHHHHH
# test: SPR Biacore, captured mAb, 25°C;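 also: biacore 4000 SPR with IL-25-MMH as analyte over purified anti-IL-25 antibodies, association and dissociation rates derived from fitting sensorgrams to a 1:1 binding model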
Write it as a number; the unit h goes unstated.

get_value(item= H4H10905P (antibody, human IgG4, V domains shown) VH: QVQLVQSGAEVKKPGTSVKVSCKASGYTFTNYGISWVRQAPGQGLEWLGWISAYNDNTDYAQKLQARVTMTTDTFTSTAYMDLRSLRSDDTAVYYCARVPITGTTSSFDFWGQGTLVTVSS VL: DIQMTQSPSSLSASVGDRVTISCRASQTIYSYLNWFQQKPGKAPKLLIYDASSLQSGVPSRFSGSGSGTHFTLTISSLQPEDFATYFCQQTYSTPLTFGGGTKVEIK , readout=t½) returns 1.77

Lab book: t½ of H4H10897P (antibody, human IgG4, V domains shown) VH: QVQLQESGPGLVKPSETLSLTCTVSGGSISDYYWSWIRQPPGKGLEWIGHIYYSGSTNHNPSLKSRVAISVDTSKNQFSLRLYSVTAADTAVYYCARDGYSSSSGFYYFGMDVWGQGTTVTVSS VL: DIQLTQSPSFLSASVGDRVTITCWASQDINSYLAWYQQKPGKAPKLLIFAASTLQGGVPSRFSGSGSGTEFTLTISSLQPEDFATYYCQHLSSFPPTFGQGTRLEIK noted as 2.45

Sure, the documented t½ for H4H10863P (antibody, human IgG4, V domains shown) VH: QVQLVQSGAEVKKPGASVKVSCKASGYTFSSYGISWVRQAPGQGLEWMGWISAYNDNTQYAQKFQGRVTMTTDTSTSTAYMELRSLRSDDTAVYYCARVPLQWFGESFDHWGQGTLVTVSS VL: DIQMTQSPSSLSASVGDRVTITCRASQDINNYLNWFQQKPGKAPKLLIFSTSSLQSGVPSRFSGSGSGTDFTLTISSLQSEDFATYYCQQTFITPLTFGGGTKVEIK is 2.65

Lab note: H4H10871P (antibody, human IgG4, V domains shown) VH: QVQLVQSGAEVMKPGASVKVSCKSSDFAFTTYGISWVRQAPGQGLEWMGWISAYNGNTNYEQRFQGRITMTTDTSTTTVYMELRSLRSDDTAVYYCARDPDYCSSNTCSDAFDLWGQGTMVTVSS VL: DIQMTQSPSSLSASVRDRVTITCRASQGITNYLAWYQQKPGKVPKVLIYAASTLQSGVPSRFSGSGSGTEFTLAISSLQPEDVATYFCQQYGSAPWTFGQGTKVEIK gave t½ of 3.02

Value of t½ reported for the binder H4H10861P (antibody, human IgG4, V domains shown) VH: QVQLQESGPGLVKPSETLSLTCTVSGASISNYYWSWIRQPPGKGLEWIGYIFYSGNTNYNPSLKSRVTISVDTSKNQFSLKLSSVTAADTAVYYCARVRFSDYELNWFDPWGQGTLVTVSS VL: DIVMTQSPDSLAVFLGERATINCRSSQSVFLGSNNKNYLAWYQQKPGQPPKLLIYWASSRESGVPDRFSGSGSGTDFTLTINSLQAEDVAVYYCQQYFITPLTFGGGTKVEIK is 8.22

Source: patent US20160083466A1
